Test system: UO-31 renal
assay_notes: NCI tumour cell line growth inhibition, 48 h
measured_attribute: TGI

For orientation, consider the following solved cases.
molecule | TGI
CCOC(=O)c1ccc(C(=O)/C(C#N)=C2\CCCN2)[nH]1 | > 100 µM
N#CS/C(Cl)=C(/C(Cl)=C(Cl)Cl)[N+](=O)[O-] | > 100 µM
COc1ccc2ccc([Se]c3ccc4ccc(OC)cc4c3)cc2c1 | 95.8 µM
CC1[C@@H](OCc2ccccc2)COC(=O)N1Cc1ccccc1 (some centres not stated) | > 100 µM
Cc1cc(C)nc(Nc2nc3ccc([N+](=O)[O-])cc3[nH]2)n1 | > 100 µM
CC(O)C(O)C(N)CC=O (configuration not stated) | > 500 µM
Cn1c(=O)c2[nH]c(CS(=O)(=O)Cc3nc4c([nH]3)c(=O)n(C)c(=O)n4C)nc2n(C)c1=O | > 100 µM
O=C1CCCC2=C1CC1=C(CCCC1=O)N2c1cccc2ccccc12 | > 100 µM
Cc1cc(S(=O)(=O)Nc2nnc(-c3ccccc3)c(-c3ccccc3)n2)c(SCc2ccccc2)cc1Cl | 73.5 µM
COc1ccc(-c2cn[nH]c2-c2cc(OC)c(OC)c(OC)c2)cc1N | > 100 µM

Consider now this further molecule.
State the recorded TGI for this entry: "S=C(Nc1ccc(Cl)cc1)Nc1ccc(-c2nc3ccccc3[nH]2)cc1"
> 29.4 µM

====

As shown below, each of these compounds has a reported TGI value.
System: NCI-H23 lung
assay_notes: NCI tumour cell line growth inhibition, 48 h

compound | result
CCOC(=O)c1c(NC(=O)Nc2ccccc2)c(C(N)=O)c2n1CCCCC2 | > 100 µM
Fc1ccc(-c2ccc(-c3nnc(-c4cc(F)c(Cl)cc4Cl)o3)o2)cc1Cl | > 100 µM
O=C(O)c1cc2c(cn1)[nH]c1ccccc12 | > 100 µM

# value lookup — system NCI-H23 lung, readout TGI, item "Cc1ccc(S(=O)(=O)N2CCCCN(S(=O)(=O)c3ccc(C)cc3)Cc3ccccc3OCCOCCOc3c4cccc3Cc3cccc5c3OCCOCCOc3ccccc3CN(S(=O)(=O)c3ccc(C)cc3)CCCN(S(=O)(=O)c3ccc(C)cc3)Cc3ccccc3OCCOCCOc3c(cccc3C4)Cc3cccc(c3OCCOCCOc3ccccc3C2)C5)cc1"
> 100 µM

# value lookup — system NCI-H23 lung, readout TGI, item "COc1ccc(-c2nc(-c3ccccc3)c(-c3ccccc3)n2C2CC2)cc1OC1CCCC1"
> 165 µM

# value lookup — system NCI-H23 lung, readout TGI, item CCOC(=O)C1C(=O)c2ccccc2CN1Cc1ccccc1 (stereo not given)
> 100 µM

====

Tested on: NCI-H226 lung
assay_notes: NCI tumour cell line growth inhibition, 48 h
measured_attribute: TGI

For orientation, consider the following solved cases.
compound | result
CCN(CC)CCOc1ccc(/C=C2\CC3C4CC=C5C[C@@H](N6CCCC6)CC[C@]5(C)C4CC[C@]3(C)[C@H]2O)cc1OC (stereo partly drawn) | 45.2 µM
O=C1CCCC2=C1CC1=C(CCCC1=O)N2c1cccc2ccccc12 | > 100 µM

State the recorded TGI for this entry: "CSc1cc(Cl)c(C)cc1S(=O)(=O)NC(=O)NNc1ccc(F)c(Cl)c1"
> 100 µM

====

System: HCC-2998 colon
assay_notes: NCI tumour cell line growth inhibition, 48 h
measured_attribute: TGI

molecule | tgt | TGI
CCOC(=O)CCC(NC(=O)c1ccc(Nc2nc3cc(C(F)(F)F)ccc3nc2-c2ccccc2)cc1)C(=O)OCC (stereo not drawn) | HCC-2998 colon | > 100 µM
Cc1c2c(n(CCc3ccccc3)c1C)NN=C(C#N)S2(=O)=O | HCC-2998 colon | > 100 µM

Consider now this further molecule.
State the recorded TGI for this entry: "Fc1ccc(-c2ccc(-c3nnc(-c4cc(F)c(Cl)cc4Cl)o3)o2)cc1Cl"
> 100 µM
